Tested on: Bacillus subtilis
protocol.description: cleaved RNA product abundance (RNA/gDNA barcode ratio) relative to median wild-type variant (ratio to wild type); higher = more accumulation of the downstream cleavage product
conditions: experiment (reporter, strain, medium): exp 8a: truncated aprE reporter, strain BJT201 with 2% xylose (RNase J1 expressed); cleavage site: glnRA (positions -5 to +31 mutated)
Please enter Condition met where cleaved RNA product abundance is greater than or equal to 0.4, and Condition not met where it is lower.

// below: answered sequences
CGACATGTCCCGCTTCTTTCATTATTCCGTTAGCAACTGTTTTGCGATATACATTTACCTTTTAAGAGGAGGAAT = Condition met
CGACATGTCCCGCTTCTTTCATTAATCCGTTAGCGACTGTTTTGCTATATACATTTACCTTTTAAGAGGAGGAAT = Condition not met

Please tell me: is the sequence `CGACATGTCCCGCTTCTTTCATTAATCAGTTAACTTTTTTGCTATATATATTTACCTTTTAAGAGGAGGAATTTT` at or over 0.4 in terms of cleaved RNA product abundance?
Condition not met

Please tell me: is the sequence `CGACATGTCCCGCTTCTTTCATTAATCCGTTATCAACTGTTTTGCTATAAACATTTACCTTTTAAGAGGAGGAAT` at or over 0.4 in terms of cleaved RNA product abundance?
Condition not met

Please tell me: is the sequence `CGACATGTCCCGCTTCTTTCATTAATCCGTTAGCAACTGTTTTGCTATATAAATGTACCTTTTAAGAGGAGGAAT` at or over 0.4 in terms of cleaved RNA product abundance?
Condition met

Please tell me: is the sequence `CGACATGTCCCGCTTCTTTCATTAATCCGTTAGCAACTGTTTAGATATATACATTTACCTTTTAAGAGGAGGAAT` at or over 0.4 in terms of cleaved RNA product abundance?
Condition not met

Please tell me: is the sequence `CGACATGTCCCGCTTCTTTCATTAATCCTTTAGCATCTCTTTTGCTATATACATTTACCTTTTAAGAGGAGGAAT` at or over 0.4 in terms of cleaved RNA product abundance?
Condition met

Please tell me: is the sequence `CGACATGTCCCGCTTCTTTCATTAATCCGTTAGTAACTGTTTAGCTATATACATTTACCTTTTAAGAGGAGGAAT` at or over 0.4 in terms of cleaved RNA product abundance?
Condition met

Please tell me: is the sequence `CGACATGTCCCGCTTCTTTCATTAATCCGTTAGGAACTGATTTGCTATATACATTTACCTTTTAAGAGGAGGAAT` at or over 0.4 in terms of cleaved RNA product abundance?
Condition met

Please tell me: is the sequence `CGACATGTCCCGCTTCTTTCATTAATCCGTTAGCAACTGTTGTGCAATATACATTTACCTTTTAAGAGGAGGAAT` at or over 0.4 in terms of cleaved RNA product abundance?
Condition not met

Please tell me: is the sequence `CGACATGTCCCGCTTCTTTCATTATTCCGTTAGCAACTGTTTTGCTATGTACATTTACCTTTTAAGAGGAGGAAT` at or over 0.4 in terms of cleaved RNA product abundance?
Condition not met

Please tell me: is the sequence `CGACATGTCCCGCTTCTTTCATTAATCCGTTAGCAACTGTTTCGCTATATACATGTACCTTTTAAGAGGAGGAAT` at or over 0.4 in terms of cleaved RNA product abundance?
Condition not met

Please tell me: is the sequence `CGACATGTCCCGCTTCTTTCATTATTCCGTTTTCAACTGTTTTGCTATATACATTTACCTTTTAAGAGGAGGAAT` at or over 0.4 in terms of cleaved RNA product abundance?
Condition not met

Please tell me: is the sequence `CGACATGTCCCGCTTCTTTCATTAATCCGTTAGCCACTGTTTTGCTATAAACATTTACCTTTTAAGAGGAGGAAT` at or over 0.4 in terms of cleaved RNA product abundance?
Condition not met

Please tell me: is the sequence `CGACATGTCCCGCTTCTTTCATTAAACCGTTAGCAACTGTTTTGCTATATACATTTACTTTTTAAGAGGAGGAAT` at or over 0.4 in terms of cleaved RNA product abundance?
Condition met

====

Tested on: Bacillus subtilis
protocol.description: cleaved RNA product abundance (RNA/gDNA barcode ratio) relative to median wild-type variant (ratio to wild type); higher = more accumulation of the downstream cleavage product
conditions: experiment (reporter, strain, medium): exp 4a: truncated aprE reporter, strain BJT201 with 2% xylose (RNase J1 expressed); cleavage site: cggR-gapA (positions -7 to +36 mutated)
property.measured: cleaved RNA product abundance
Just the number.

ACAGACGAAGGAGCCGCAAAGAAGTTATTAAGGGATGAATAATCTCTCAACATAAATATCTCTCACTTATTTAAA = 0.156
ACAGACGAAGGAGCCGCAAAGAAGTTTTTAAGGGATGAATAATCCGTCAATATAAATATCTCTCACTTATTTAAA = 0.321
ACAGACGAAGGAGCCGCAATGAAGTTATTAAGAGATGAATAATCCCTCAATATAAATATCTCTCACTTATTTAAA = 0.204

# returns recorded cleaved RNA product abundance (system: Bacillus subtilis) for `ACAGACGAAGGAGCCGCAAAGAAGCTATTAAGGTATGAATAATCCCTCAATATAAATATCTCTCACTTATTTAAA`
0.0903

====

The following sequences are shown together with reported cleaved RNA product abundance values.
Test system: Bacillus subtilis
protocol.description: cleaved RNA product abundance (RNA/gDNA barcode ratio) relative to median wild-type variant (ratio to wild type); higher = more accumulation of the downstream cleavage product
conditions: experiment (reporter, strain, medium): exp 4a: truncated aprE reporter, strain BJT201 with 2% xylose (RNase J1 expressed); cleavage site: cggR-gapA (positions -7 to +36 mutated)
Just the number.

Use these answered entries as a reference point.
ACAGACGAAGGAGCCGCTAAGAAGTTATTAAGGGAGGAATAATCCCTCAATATAAATATCTCTCACTTATTTAAA = 0.993
ACAGACGAAGGAGCCGCAAAGAAATTATTAAGGGTTGAATAATCCCTCAATATAAATATCTCTCACTTATTTAAA = 0.365
ACAGACGAAGGAGCCGCAACGAAGTTATTAAGGAATGAATAATCCCTCAATATAAATATCTCTCACTTATTTAAA = 0.126
ACAGACGAAGGAGCCGCAAAGAAGTTATCAAGGCATGAATAATCCCTCAATATAAATATCTCTCACTTATTTAAA = 0.0787

Fill blank: measured cleaved RNA product abundance of the sequence `ACAGACGAAGGAGCCGCAAAGAAGTTATTAAGGGATGAATAATCCCTTAATATAGATATCTCTCACTTATTTAAA` is ____.
0.866

Fill blank: measured cleaved RNA product abundance of the sequence `ACAGACGAAGGAGCCGCAAAGAAGTTATTAAGGGATGAATAATCACTCAATCTAAATATCTCTCACTTATTTAAA` is ____.
0.0379

Fill blank: measured cleaved RNA product abundance of the sequence `ACAGACGAAGGAGCCGCAAAAAAGTTATTAAGGGATGAATAATCCCTCAACATAAATATCTCTCACTTATTTAAA` is ____.
0.272

====

The following sequences are shown together with reported cleaved RNA product abundance values.
Tested on: Bacillus subtilis
protocol.description: cleaved RNA product abundance (RNA/gDNA barcode ratio) relative to median wild-type variant (ratio to wild type); higher = more accumulation of the downstream cleavage product
conditions: experiment (reporter, strain, medium): exp 8a: truncated aprE reporter, strain BJT201 with 2% xylose (RNase J1 expressed); cleavage site: glnRA (positions -5 to +31 mutated)
Just the number.

CGACATGTCCCGCTTCTTTCATTAATACGTTAGCAACTGATTTGCTATATACATTTACCTTTTAAGAGGAGGAAT = 1.24
CGACATGTCCCGCTTCTTTCATTAATACGTTAGCAACTGTTTAGCTATATACATTTACCTTTTAAGAGGAGGAAT = 0.376
CGACATGTCCCGCTTCTTTCATTAATTCGTTAGCACCTGTTTTGCTATATACATTTACCTTTTAAGAGGAGGAAT = 0.658

# input for lookup
Fill blank: measured cleaved RNA product abundance of the sequence `CGACATGTCCCGCTTCTTTCATTAATCCTTTAGCAACTGTTTTGCTATATATATTTACCTTTTAAGAGGAGGAAT` is ____.
0.909

====

The following sequences are shown together with reported cleaved RNA product abundance values.
System: Bacillus subtilis
protocol.description: cleaved RNA product abundance (RNA/gDNA barcode ratio) relative to median wild-type variant (ratio to wild type); higher = more accumulation of the downstream cleavage product
conditions: experiment (reporter, strain, medium): exp 4a: truncated aprE reporter, strain BJT201 with 2% xylose (RNase J1 expressed); cleavage site: cggR-gapA (positions -7 to +36 mutated)
Just the number.

Use these answered entries as a reference point.
ACAGACGAAGGAGCCGCAAAGAAGTTATTATGGGATGAATAATCCCTAAATATAAATATCTCTCACTTATTTAAA = 0.514
ACAGACGAAGGAGCCGCAAAGAAGTTATTAAGGGAGGAATAACCCCTCAATATAAATATCTCTCACTTATTTAAA = 0.213
ACAGACGAAGGAGCCGCAAAGAAGCTATTAAGGGATGAATAATCCCTCAATATAAATATCTCTCACTTATTTAAA = 0.615
ACAGACGAAGGAGCCGCATAGAAGTTATTAAGGCATGAATAATCCCTCAATATAAATATCTCTCACTTATTTAAA = 0.13
ACAGACGAAGGAGCCGCACAGAAGTTATTAAGGGTTGAATAATCCCTCAATATAAATATCTCTCACTTATTTAAA = 0.473

Fill blank: measured cleaved RNA product abundance of the sequence `ACAGACGAAGGAGCCGCAAAGAAGTTATTAAGGGATGACTACTCCCTCAATATAAATATCTCTCACTTATTTAAA` is ____.
0.446

Fill blank: measured cleaved RNA product abundance of the sequence `ACAGACGAAGGAGCCGCAAAGAAGTTATTAAGGGAACAATAATCCCTCAATATAAATATCTCTCACTTATTTAAA` is ____.
0.79

Fill blank: measured cleaved RNA product abundance of the sequence `ACAGACGAAGGAGCCGCAAAGAAGTTATTAAGGGATGATTAATCCTTCAATATAAATATCTCTCACTTATTTAAA` is ____.
0.469

Fill blank: measured cleaved RNA product abundance of the sequence `ACAGACGAAGGAGCCGCAAAGAAGTTATTAAGGGATGAAAAATCCCTCAAAATAAATATCTCTCACTTATTTAAA` is ____.
0.333

Fill blank: measured cleaved RNA product abundance of the sequence `ACAGACGAAGGAGCCGCAAAGAAATTATTAAGGGATGAATAATAACTCAATATAAATATCTCTCACTTATTTAAA` is ____.
0.168

Fill blank: measured cleaved RNA product abundance of the sequence `ACAGACGAAGGAGCCGCAAAGAAGTTATTAAGGCATGATTAATCCCTCAATATAAATATCTCTCACTTATTTAAA` is ____.
0.15
